target: CYP3A4 (Homo sapiens); test: Determination of compound Kiapp against recombinant CYP3A4 enzyme (BFC fluorescent substrate); assay type: biochemical; settings: Baculo. enzyme preparation, read-out: Kiapp (BFC, Baculo.)
Sequence (P08684 whole entry): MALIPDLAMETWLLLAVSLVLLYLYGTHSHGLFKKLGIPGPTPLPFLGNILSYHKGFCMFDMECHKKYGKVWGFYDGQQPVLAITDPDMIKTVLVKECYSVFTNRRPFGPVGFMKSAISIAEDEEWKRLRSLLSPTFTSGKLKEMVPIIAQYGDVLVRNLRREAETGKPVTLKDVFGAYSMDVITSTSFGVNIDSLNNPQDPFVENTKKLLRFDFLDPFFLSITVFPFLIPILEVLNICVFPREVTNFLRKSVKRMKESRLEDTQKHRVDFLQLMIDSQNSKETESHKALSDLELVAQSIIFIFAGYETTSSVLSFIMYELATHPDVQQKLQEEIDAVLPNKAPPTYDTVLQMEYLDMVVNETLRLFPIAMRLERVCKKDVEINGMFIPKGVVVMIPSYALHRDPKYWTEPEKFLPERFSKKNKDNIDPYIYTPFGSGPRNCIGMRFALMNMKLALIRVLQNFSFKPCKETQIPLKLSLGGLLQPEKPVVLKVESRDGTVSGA
pKi: −log10 of the molar value.
# maps each entry to its pKi
assay.metric: pKi

> print(dat)
                                    compound  prefix.operator  reported.value
 1  Cc1cncc(NS(=O)(=O)c2ccccc2C(=O)N2CCC(C)CC2)c1 [Example 363]                =            6.77
 2  CCOc1ccncc1NS(=O)(=O)c1ccccc1C(=O)NCc1ccc(F)c(F)c1 [Example 252]                =            7.77
 3  COc1cncc(N(C)S(=O)(=O)c2ccccc2C(=O)NCc2cccc(F)c2)c1 [Example 322]                =            7.26
 4  COc1ccccc1CNC(=O)c1ccccc1S(=O)(=O)Nc1cncc(C)c1 [Example 93]                =            6.78
 5  CCCCC(CO)NC(=O)c1ccccc1S(=O)(=O)Nc1cncc(OC)c1 (stereo not drawn) [Example 189]                =            6.76
 6  CCOc1cncc(NS(=O)(=O)c2ccccc2C(=O)NC(C)C2CC2)c1 (stereo not drawn) [Example 299]                =            7.25
 7  COc1cncc(NS(=O)(=O)c2ccccc2C(=O)NCc2ccc(F)c(C(F)(F)F)c2)c1 [Example 312]                =            8.07
 8  COCCNC(=O)c1ccccc1S(=O)(=O)Nc1cccnc1 [Example 261]                <            6.00
 9  CCOc1cncc(NS(=O)(=O)c2ccccc2C(=O)NC2CC2)c1 [Example 301]                =            6.39
10  COc1cncc(NS(=O)(=O)c2ccccc2C(=O)NCc2cccc(Cl)c2C)c1 [Example 206]                =            8.44
11  COc1ccncc1NS(=O)(=O)c1ccccc1C(=O)NCCC(C)C [Example 277]                =            6.34
12  CC(C)(C)OC(=O)N1CC2(CCN(C(=O)c3ccccc3S(=O)(=O)Nc3cccnc3)CC2)C1 [Example 10]                <            6.00
13  Cc1ccncc1NS(=O)(=O)c1ccccc1C(=O)N(C)Cc1ccc(F)c(F)c1 [Example 172]                =            6.76
14  CC(C)(CN1CCOCC1)NC(=O)c1ccccc1[S+]([O-])Cc1cccnc1 (stereo not drawn) [Example 70]                =            6.10
15  COc1cncc(NS(=O)(=O)c2ccc(OCCN3CCNCC3)cc2C(=O)N(C)C(C)C)c1 [Example 242]                =            6.61
16  CC[C@H](C)NC(=O)c1ccccc1S(=O)(=O)Nc1cncc(OC)c1 [Example 102]                =            6.43
17  COc1cncc(NS(=O)(=O)c2ccc(F)cc2C(=O)N(C)C(C)C)c1 [Example 304]                =            6.27
18  COc1cncc(NS(=O)(=O)c2ccccc2C(=O)NC(C(C)C)C(C)C)c1 [Example 211]                =            7.47

Hey, just so you know, these numbers are from patent US7868026B2.
